Assay protocol: GAPDH and PEG-3 promoter luciferase suppression – cell-based, luminescence, set 2, counter-screen for PEG-3 promoter inhibitor project, dose response (AID 651549)
Details: HeLa PEG-Prom-luciferase or GAPDH-reporter, 6/24 h, GAPDH, run 1, 6 h
Activity calls are given as the source filed them.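 The calls were made as follows: active = compounds blocking the PEG3 reporter with IC50 up to 10 µM at either incubation, yet sparing the GAPDH control reporter; inactive = the rest.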
Quantity kind: IC50

Compound	Measurement
O=C(O)CSCC(=O)Nc1ccc(C2CCCCC2)cc1	5.37 µM
COc1ccc(-n2cc(-c3ccccc3)c3c(N4CCOCC4)ncnc32)cc1	inactive
COc1ccc(C(=O)Nc2ccc(C)cn2)c(OC)c1	1.07 µM
CS(=O)(=O)c1ccc(-c2sc3ccccc3c2C#CCCO)cc1	inactive
Cc1cccc(-n2cc(-c3ccccc3)c3c(N4CCOCC4)ncnc32)c1	> 99 µM (inactive)
COc1ccc(CC2C(=O)NC(C)C(=O)N(C)C3C(=O)N(C)C(Cc4ccc(O)c(c4)Oc4ccc(cc4)C3O)C(=O)NC(C)C(=O)NC(C)C(=O)N2C)cc1 (stereo unspecified)	< 1 µM
CCC(c1nnnn1-c1ccc2c(c1)OCCO2)N1CCC(n2c(=O)[nH]c3ccccc32)CC1 (stereo unspecified)	inactive
Cc1ccc2nc(NC(=O)CSCC(=O)OCC(=O)c3ccccc3)sc2c1	inactive
CCOC(=O)c1ccc2nc(Nc3nc4ccc(F)cc4s3)sc2c1	> 99 µM (inactive)
C[C@]12CC[C@H]3C(CCC4(O)CC(O)CC[C@]34C=O)C1=CC[C@H]2c1ccc(=O)oc1 (stereo partly specified)	3.59 µM
Cc1ccc(S(=O)(=O)NC(CC(C)C)C(=O)NCC(c2ccco2)N2CCCCC2)cc1 (stereo unspecified)	inactive
Cc1cc(C)cc(NS(=O)(=O)c2ccc3[nH]cc(C(=O)NCc4ccco4)c(=O)c3c2)c1	inactive
CCSc1nc2ccccc2n1C(=O)/C=C\c1ccc(OC)c(OC)c1	6.8 µM
CC(C)(C)c1ccc(Oc2ccc(N)cc2)cc1	6.12 µM
NS(=O)(=O)c1ccc(CCNc2nn3c(-c4ccc(F)c(Cl)c4)cnc3s2)cc1	inactive
COC1CC(C)C(OC)c2cc(O)cc(c2O)NC(=O)C(C)=CC=CC(C)C(OC(N)=O)C(C)=CC(C)C1OC (stereo unspecified)	inactive
CC(CCc1ccccc1)NC(=O)COC(=O)c1ccc(S(C)(=O)=O)c([N+](=O)[O-])c1 (stereo unspecified)	inactive
CC(=O)c1sc2c(c1OC(=O)c1ccc(Cl)cc1Cl)c(=O)n(-c1ccccc1)c(=S)n2-c1ccccc1	0.853 µM
Cc1ccc2nc(NC(=O)CSCC(=O)OCC(=O)c3ccc(Br)cc3)sc2c1	3.81 µM
COC(=O)C1=C(CN2CCCc3ccccc32)NC(=O)NC1c1ccc(F)cc1 (stereo unspecified)	1.39 µM
CC(=O)c1cccc(-c2ccnc3c2CC(C(=O)Nc2cccc(NS(C)(=O)=O)c2)O3)c1 (stereo unspecified)	inactive
CCC(C)(C)c1ccc(Oc2ccc(N)cc2)cc1	5.21 µM
CN1OC[C@@H]2CN(S(=O)(=O)c3cccc(C(F)(F)F)c3)[C@H](c3ccc(-c4cc5ccccc5o4)cc3)C[C@@H]21	inactive
Cc1cc2cc(CCNC(=O)C(=O)c3c[nH]c4ccccc34)c(=O)[nH]c2cc1C	inactive
Cc1ccc(C)c(S(=O)(=O)N2CCN(c3ncnc4sccc34)CC2)c1	inactive
Cc1c(/C(O)=C2/C(=O)C(=O)N(Cc3cccnc3)C2c2ccccn2)cnn1-c1ccccc1 (stereo unspecified)	1.01 µM
Cn1c(Cl)cnc1C1CC(=O)c2cc(Cl)ccc2O1 (stereo unspecified)	inactive
Cc1ccc(-c2cn3nc(C)c(C)nc3n2)cc1	inactive
Cc1nc2c(-c3ccc(Cl)cc3)c(C)[nH]n2c(=O)c1Cc1ccccc1	inactive
COCCn1c(C)cc(C(=O)COc2ccc(C)nc2[N+](=O)[O-])c1C	inactive
O=C(COc1ccc2c(c1)CCC2)Nc1ccccn1	2.7 µM
CC(C)(C)c1ccc(Cn2c(=O)cnc3ccccc32)cc1	6 µM
C=CCn1c(C)cc(C(=O)COc2ccc(C)nc2[N+](=O)[O-])c1C	8.44 µM
CCc1ccn2cc(-c3ccc4c(c3)OCO4)nc2c1	2.23 µM
CCCCCCCn1c(=N)n(CC(=O)c2ccco2)c2ccccc21	inactive
CC1CCN(c2nc3ccc(C(=O)O)cc3s2)CC1	1.93 µM
CCCn1nc(C(=O)Nc2nc(-c3ccccn3)cs2)c2ccccc2c1=O	inactive
COC(=O)c1ccc2nc(Nc3nc4ccc(F)cc4s3)sc2c1	< 1 µM
COc1cc2nc(CN3CC=C(c4ccccc4)CC3)[nH]c(=O)c2cc1OC	inactive
O=C(NCC1CCCO1)C(c1ccc(F)cc1)N(C(=O)Cn1nnc(-c2ccc(F)cc2)n1)c1cccc(O)c1 (stereo unspecified)	inactive
CC(=O)OC1CC2(O)C3CCC4CC(O)CCC4(C)C3CCC2(C)C1C1=CC(=O)OC1 (stereo unspecified)	0.416 µM

----------
Assay protocol: GAPDH and PEG-3 promoter luciferase suppression – cell-based, luminescence, set 2, counter-screen for PEG-3 promoter inhibitor project, dose response (AID 651549)
Details: HeLa PEG-Prom-luciferase or GAPDH-reporter, 6/24 h, GAPDH, run 1, 24 h
The source made the active and inactive calls.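 How the source made its calls: active means compounds blocking the PEG3 reporter with IC50 up to 10 µM at either incubation, yet sparing the GAPDH control reporter; inactive means the rest.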
Labels: active, inactive

Compound	Category
Cc1cccc(-n2cc(-c3ccccc3)c3c(N4CCOCC4)ncnc32)c1	inactive
COc1ccc(C(=O)Nc2ccc(C)cn2)c(OC)c1	active
Cc1ccc(-c2cn3nc(C)c(C)nc3n2)cc1	inactive
CC1CC(C)C(=O)C(C(CC2CC(=O)NC(=O)C2)OC(=O)CC(=O)c2ccccc2)C1 (stereo not given)	active
CCC(c1nnnn1-c1ccc2c(c1)OCCO2)N1CCC(n2c(=O)[nH]c3ccccc32)CC1 (stereo not given)	active

----------
Assay protocol: GAPDH and PEG-3 promoter luciferase suppression – cell-based, luminescence, set 2, counter-screen for PEG-3 promoter inhibitor project, dose response (AID 651549)
Details: HeLa PEG-Prom-luciferase or GAPDH-reporter, 6/24 h, PEG-3, run 1, 6 h
The source made the active and inactive calls.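 Rule for the calls: active = compounds blocking the PEG3 reporter with IC50 up to 10 µM at either incubation, yet sparing the GAPDH control reporter; inactive = the rest.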
Labels: active, inactive

Substance smiles	Category
Cc1ccc(C)c(S(=O)(=O)N2CCN(c3ncnc4sccc34)CC2)c1	inactive
Cc1cccc(NC(=O)c2oc3ccc(S(=O)(=O)N4CCOCC4)cc3c2C)c1C	inactive
Cc1ccc2nc(NC(=O)CSCC(=O)OCC(=O)c3ccccc3)sc2c1	inactive
Cc1cc(C)cc(NS(=O)(=O)c2ccc3[nH]cc(C(=O)NCc4ccco4)c(=O)c3c2)c1	inactive
CCC(C)(C)c1ccc(Oc2ccc(N)cc2)cc1	active

----------
Assay protocol: GAPDH and PEG-3 promoter luciferase suppression – cell-based, luminescence, set 2, counter-screen for PEG-3 promoter inhibitor project, dose response (AID 651549)
Details: HeLa PEG-Prom-luciferase or GAPDH-reporter, 6/24 h, GAPDH, run 1, 24 h
The source made the active and inactive calls.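 The calls were made as follows: active = compounds blocking the PEG3 reporter with IC50 up to 10 µM at either incubation, yet sparing the GAPDH control reporter; inactive = the rest.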

Compound	IC50
O=C(NCC1CCCO1)C(c1ccc(F)cc1)N(C(=O)Cn1nnc(-c2ccc(F)cc2)n1)c1cccc(O)c1 (stereo unspecified)	inactive
CCCn1nc(C(=O)Nc2nc(-c3ccccn3)cs2)c2ccccc2c1=O	inactive
O=C(c1ccco1)N1CCN(C(c2ccccc2Cl)c2nnnn2Cc2cccs2)CC1 (stereo unspecified)	inactive
CCc1ccn2cc(-c3ccc4c(c3)OCO4)nc2c1	inactive
Cc1c(CN2CCC(CO)(CCOc3ccccc3)CC2)[nH]c2c(Cl)cccc12	inactive
CN1OC[C@@H]2CN(S(=O)(=O)c3cccc(C(F)(F)F)c3)[C@H](c3ccc(-c4cc5ccccc5o4)cc3)C[C@@H]21	6.66 µM
COc1ccc(Nc2ncnc3ccc(Br)cc23)c(OC)c1	1.68 µM
O=C(Nc1cccc(-c2ccc(N3CCCCC3)nn2)c1)C(F)(F)F	inactive
CCOc1ccc(-n2cc(-c3ccccc3)c3c(N4CCOCC4)ncnc32)cc1	> 99 µM (inactive)
Cc1oc(-c2ccc3c(c2)OCCO3)cc1C(=O)O	7.36 µM
Cc1cc(C(=O)Nc2cccc(C(=O)O)c2)oc1C	inactive
O=C(O)CSCC(=O)Nc1ccc(C2CCCCC2)cc1	0.307 µM
CCCCCCCn1c(=N)n(CC(=O)c2ccco2)c2ccccc21	inactive
COC(=O)C1=C(CN2CCCc3ccccc32)NC(=O)NC1c1ccc(F)cc1 (stereo unspecified)	0.789 µM
CCSc1nc2ccccc2n1C(=O)/C=C\c1ccc(OC)c(OC)c1	5.39 µM
COC1CC(C)C(OC)c2cc(O)cc(c2O)NC(=O)C(C)=CC=CC(C)C(OC(N)=O)C(C)=CC(C)C1OC (stereo unspecified)	inactive

----------
Assay protocol: GAPDH and PEG-3 promoter luciferase suppression – cell-based, luminescence, set 2, counter-screen for PEG-3 promoter inhibitor project, dose response (AID 651549)
Details: HeLa PEG-Prom-luciferase or GAPDH-reporter, 6/24 h, GAPDH, run 1, 6 h
Activity calls are given as the source filed them.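 Rule for the calls: active = compounds blocking the PEG3 reporter with IC50 up to 10 µM at either incubation, yet sparing the GAPDH control reporter; inactive = the rest.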
Quantity kind: IC50

Molecule	Quantity kind	Measurement
O=C(Nc1ccccc1C(=O)Nc1nnc(C(F)(F)F)s1)c1ccccc1	IC50	1.41 µM
CS(=O)(=O)c1ccc(-c2cn3cc(C(=O)O)ccc3n2)cc1	IC50	inactive
Cc1cccc(NC(=O)c2nc(S(=O)(=O)Cc3ccccc3)ncc2Cl)c1	IC50	8.24 µM
CCC1(O)C(=O)OCc2c1cc1n(c2=O)Cc2cc3cc(O)ccc3nc2-1 (stereo not given)	IC50	3.1 µM
CS(=O)(=O)Nc1cccc(NC(=O)C2Cc3c(-c4ccccc4)ccnc3O2)c1 (stereo not given)	IC50	> 99 µM (inactive)
O=C(Nc1cccc(-c2ccc(N3CCCCC3)nn2)c1)C(F)(F)F	IC50	3.5 µM
CC1CC(C)C(=O)C(C(CC2CC(=O)NC(=O)C2)OC(=O)CC(=O)c2ccccc2)C1 (stereo not given)	IC50	1.36 µM
O=C(O)c1ccc(Nc2nc3c(s2)CCCC3)cc1	IC50	8.49 µM
Cc1cc(C(=O)Nc2cccc(C(=O)O)c2)oc1C	IC50	7.74 µM
Cc1cccc(NC(=O)c2oc3ccc(S(=O)(=O)N4CCOCC4)cc3c2C)c1C	IC50	inactive
NC(=O)c1cc([N+](=O)[O-])ccc1NCc1ccc(N)cc1	IC50	inactive
CCn1cc(C(=O)NCc2ccco2)c(=O)c2cc(S(=O)(=O)N3CC(C)CC(C)C3)ccc21 (stereo not given)	IC50	inactive
CCOc1ccc(-n2cc(-c3ccccc3)c3c(N4CCOCC4)ncnc32)cc1	IC50	> 99 µM (inactive)
CC(=O)OC1CC[C@]2(C#N)[C@H]3CC[C@]4(C)[C@H](C5C=CC(=O)O5)CCC4(O)C3CCC2(O)C1 (stereo not given in full)	IC50	6.51 µM
O=C(c1ccco1)N1CCN(C(c2ccccc2Cl)c2nnnn2Cc2cccs2)CC1 (stereo not given)	IC50	inactive
